# MEASUREMENT_TARGET: T1, full-length Sudan GP (GPFL) (Sudan virus (SUDV), UniProt Q7T9D9 33-650)
# T1 construct: also called Sudan GPFL; GP(S)FL
# T1 sequence: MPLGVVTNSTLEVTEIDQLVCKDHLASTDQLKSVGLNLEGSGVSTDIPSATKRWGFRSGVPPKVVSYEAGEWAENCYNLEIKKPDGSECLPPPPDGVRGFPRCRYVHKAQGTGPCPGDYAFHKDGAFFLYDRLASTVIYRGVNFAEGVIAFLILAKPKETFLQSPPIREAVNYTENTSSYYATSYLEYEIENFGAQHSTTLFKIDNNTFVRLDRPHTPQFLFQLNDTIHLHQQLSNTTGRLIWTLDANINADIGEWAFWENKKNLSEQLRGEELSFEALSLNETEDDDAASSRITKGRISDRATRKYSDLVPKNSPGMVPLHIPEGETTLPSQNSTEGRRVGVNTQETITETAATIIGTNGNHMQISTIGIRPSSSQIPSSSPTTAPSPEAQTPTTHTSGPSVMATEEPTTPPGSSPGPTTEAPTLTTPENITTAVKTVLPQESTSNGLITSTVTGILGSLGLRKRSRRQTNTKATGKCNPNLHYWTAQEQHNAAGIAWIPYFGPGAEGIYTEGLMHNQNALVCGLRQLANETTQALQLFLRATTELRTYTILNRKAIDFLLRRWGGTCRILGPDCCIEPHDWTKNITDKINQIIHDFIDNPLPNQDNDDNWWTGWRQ
# ASSAY_SUMMARY: ELISA on coated GP
Criterion: EC50 strictly less than 0.05 µg/mL. Met: yes (1). Not met: no (0).

Please review the entries below; each comes with its answer.
[
  {
    "BINDER": "antibody 338S (antibody, V domains shown) VH: EVQLVESGGGVVQPGRSLRLSCAASGFTFSQYGMHWVRQAPGKGLECVAVIWFDGSKKYYGDSVKGRFTISRDNSKNTLYLQMNSLRAEDTAVYFCARESLYYYDSGGHYYERGRIDYWGQGTLVTVSS VL: DIQMTQSPSSLSASVGDRVTITCRASQDISNFLAWFQQKPGKAPKSLIYAASSLLSGVPSKFSGSGSGTDFTLTISSLQPEDFATYYCQQYNSYPPTFGQGTKLEIK",
    "GROUP": "yes (1)"
  },
  {
    "BINDER": "antibody 102S (antibody, V domains shown) VH: EVQLVESGGGLVQPGGSLRLSCSASGFTFHSYDMNWARQAPGKGLEWVSEISSSGQSKNYADSVRGRFTISRDNAKNSLYLQINSLRSEDTAVYYCARVGFVAKFGSDFSITHGTYYLDYWGQGTLVTVSS VL: QLVLTQSPATLSLSPGERATLSCRASQSVSNYLAWYQQKPGQAPRLLIYDASNRAPGVPARFSGSGSGTDFSLTISSLEPEDFAVYYCLQRSNWPPWTFGQGTKVEIK",
    "GROUP": "no (0)"
  },
  {
    "BINDER": "antibody 335S (antibody, V domains shown) VH: EVQLVESGGGVVQPGRSLRLSCAASGFSFSNYAMHWVRQAPGKGLEWVAVTWYDGSSKYHADSVKGRFTISRDNSKNTLYLQMNSLRAEDTAVYYCARWGMGIVASPGNVLNYYYFMDVWGQGTTVIVSS VL: SYELTQPPSVSVSPGQTARITCSGNPLPKKHTYWYQQKPGQAPVLMIYKDSERPSRIPERFSGSSSGTTVTLTISGVQAEDEADYYCQSADSTGIVVFGGGTKLTVL",
    "GROUP": "yes (1)"
  },
  {
    "BINDER": "antibody 203S (antibody, V domains shown) VH: QVQLVQSGAEVKKPGSSVKVSCKASGGTFSSYAISWVRQAPGQGLEWLGRILPALGLANYAQKYQDRVKITADKSTSTAYMELSRLGSEDTAVYYCARDRWVGAARRGQYFDYWGQGTQVTVSS VL: DIQMTQSPATLSASVGDRVTITCRASQSIGTWLAWYQQKPGKAPKLLIYDASSLESGVPPRFSGSGSETEFTLTISSLQPDDFATYYCHQYKSYSYTFGQGTKLEIK",
    "GROUP": "no (0)"
  },
  {
    "BINDER": "antibody 578S (antibody, V domains shown) VH: EVQLVESGGGVVQPGRSLRLSCAASGFTFSSYELHWVRQAPGKGLEWVAVISYDGSSKYYADSLKGRFTISRDNSKNTLSLQMNSLRAEDTAMYYCVRQSEAYCSDGRCDWRRALDIWGQGTMVTVSP VL: DIQMTQSPSSLSASVGDRVTITCQASQDIKNYLNWYQQKPGKAPKLLIYDVSKLETGVPSRFSGSGSGTDFSFTISSLQPEDIATYYCQQYDNLPSYTFGQGTKLEIK",
    "GROUP": "no (0)"
  },
  {
    "BINDER": "antibody 285S (antibody, V domains shown) VH: QVQLVQSGAEVKKPGSSVKVSCKASGGTFSTYAITWVRQAPGQGLEWMGRIIPILRVANYAQKFQGRVTITADSSTSTAYMELSSLRSEDTAVYYCANLLAYCGGDCRSDYWGQGTLVTVSS VL: EIVLTQSPGTLSLSPGERATLSCRASQSVKNSYLAWYHQKPGQAPRLLIYGASSRATGIPDRFSGSGSGTDFTLTISRLEPEDFAVYYCQQYGSSLWTFGQGTKVDVK",
    "GROUP": "yes (1)"
  },
  {
    "BINDER": "antibody 365S (antibody, V domains shown) VH: EVQLVESGGGLVQPGGSLRLSCAASGLTFSAYEMNWVRQAPGKGLEWVSHITTSGSAIYYADSVKGRFTISRDNAKNSLHLQMNRLRADDTAVYFCARDSTIVQCSGTSCHVSTYSYMDVWGKGTTVTVSS VL: EIVLTQSPATLSLSPGERATLSCRASQSVTTYLAWYQHKPGQAPRLLIYDASKRATGIPARFSGSGSGTDFTLTISSLEPEDFAVYHCQQRSSWPPITFGQGTRLEIK",
    "GROUP": "no (0)"
  }
]

Could you now consider this next binder?
Req: Would you kindly verify if EC50 of antibody 382S (antibody, V domains shown) VH: QVQLVQSGAEVKKPGSSVKVSCKASGGTFSNYGISWVRQAPGQGLEWMGRNIPIIGIANYAQKFQDRVTITADKSTSTVFMELRSLRYEDTAVYYCARDPLAARRGNWFDPWGQGTLVTVSS VL: DIQMTQSPSTLSASVGDRVTITCRASQSVSSWLAWYQQKPGKAPKLLIYDASTLQSGVPSRFSGSGSGTEFTLTISSLQPDDFATYYCQQYNSYSYTFGQGTKLEIK is strictly less than 0.05 µg/mL?
Resp: no (0)

The origin of these recorded values is patent US20260209316A1.
